Just for reference, PubChem BioAssay AID1845206 is where these values come from.

# Tested on: NCI-H1618 multicellular tumor spheroid viability
# Run description: Anticancer human tumor NCI-H1618 cell line growth inhibition;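 note: spheroids exposed to agents for 7 days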
# Experimental setup: second compound 10 µM; first compound 3 µM; active compounds read low
Please go through the items and note down their viability, T/C.
Write the number in % without appending the unit.

Incoming: What measured viability, T/C goes with Cn1ncnc1[C@H]1c2n[nH]c(=O)c3cc(F)cc(c23)N[C@@H]1c1ccc(F)cc1 + Cn1nnc2c(C(N)=O)ncn2c1=O ?
Outgoing: 1.95

Incoming: State the recorded viability, T/C for this entry: CNCc1ccc(-c2cc(-c3nc(-c4ccc(S(=O)(=O)C(C)C)cc4)cnc3N)on2)cc1 + Cn1nnc2c(C(N)=O)ncn2c1=O
Outgoing: 16.5

Incoming: Fill in the blank: the reported viability, T/C of O=C(c1cc(Cc2n[nH]c(=O)c3ccccc23)ccc1F)N1CCN(C(=O)C2CC2)CC1 + Cn1nnc2c(C(N)=O)ncn2c1=O is ____.
Outgoing: 20

Incoming: What value of viability, T/C has been recorded for this entry: Cc1sc2c(c1C)C(c1ccc(Cl)cc1)=NC(CC(=O)Nc1ccc(O)cc1)c1nnc(C)n1-2 (centres undefined) + Cn1nnc2c(C(N)=O)ncn2c1=O
Outgoing: 1.94
